# PROTOCOL: In vitro skin permeation, Franz diffusion cells
# Assay type: in vitro ADME, porcine
# CONDITION_LABEL: porcine ear skin, donor saturated solution in isopropyl myristate, receptor PBS pH 7.4, 32 °C, 24 h
// n strictly below 3 µg/cm^2 in Q24h, the cumulative amount of drug permeated per unit area at 24 h; y otherwise

{"COMPOUND": "CC(=O)Oc1cccc2c1C(=O)c1c(OC(C)=O)cc(C(=O)O)cc1C2=O.CCNCC", "ANSWER_LABEL": "n"}
{"COMPOUND": "CC(=O)Oc1cccc2c1C(=O)c1c(OC(C)=O)cc(C(=O)O)cc1C2=O.CCCCCCCCN", "ANSWER_LABEL": "y"}
{"COMPOUND": "CC(=O)Oc1cccc2c1C(=O)c1c(OC(C)=O)cc(C(=O)O)cc1C2=O.OCCN(CCO)CCO", "ANSWER_LABEL": "y"}
{"COMPOUND": "CC(=O)Oc1cccc2c1C(=O)c1c(OC(C)=O)cc(C(=O)O)cc1C2=O.CCCCCCCCCCCCCCN", "ANSWER_LABEL": "y"}
{"COMPOUND": "CC(=O)Oc1cccc2c1C(=O)c1c(OC(C)=O)cc(C(=O)O)cc1C2=O.CCCCCCCCCCCCCCCCN", "ANSWER_LABEL": "y"}

Incoming: # check: Q24h, the cumulative amount of drug permeated per unit area at 24 h of CC(=O)Oc1cccc2c1C(=O)c1c(OC(C)=O)cc(C(=O)O)cc1C2=O.CCN is greater than or equal to 3 µg/cm^2
Outgoing: n

Incoming: # check: Q24h, the cumulative amount of drug permeated per unit area at 24 h of CC(=O)Oc1cccc2c1C(=O)c1c(OC(C)=O)cc(C(=O)O)cc1C2=O [DCN, Diacerein, reference compound] is greater than or equal to 3 µg/cm^2
Outgoing: n

Incoming: # check: Q24h, the cumulative amount of drug permeated per unit area at 24 h of CC(=O)Oc1cccc2c1C(=O)c1c(OC(C)=O)cc(C(=O)O)cc1C2=O.CCCCCCN is greater than or equal to 3 µg/cm^2
Outgoing: y

Incoming: # check: Q24h, the cumulative amount of drug permeated per unit area at 24 h of CC(=O)Oc1cccc2c1C(=O)c1c(OC(C)=O)cc(C(=O)O)cc1C2=O.CCCCCCCCCCCCCCCCCCN is greater than or equal to 3 µg/cm^2
Outgoing: y

---

# PROTOCOL: Equilibrium solubility experiments
# Assay type: physicochemical
# CONDITION_LABEL: thermodynamic from solid, water, 32 °C, read-out: Equilibrium solubility Water
READOUT_LABEL: solubility thermodynamic at 48 h (mg/mL)
State the answer as a number, implicitly in mg/mL.

Examples from the recorded data:
{"COMPOUND": "CC(=O)Oc1cccc2c1C(=O)c1c(OC(C)=O)cc(C(=O)O)cc1C2=O [DCN, Diacerein, reference compound]", "UNIT_STRING": "mg/mL", "NUMBER": 0.00829}
{"COMPOUND": "CC(=O)Oc1cccc2c1C(=O)c1c(OC(C)=O)cc(C(=O)O)cc1C2=O.CCN(CC)CC", "UNIT_STRING": "mg/mL", "NUMBER": 3.23}

In the following, a different compound is considered.
Incoming: Which solubility thermodynamic at 48 h reading was recorded for the compound CC(=O)Oc1cccc2c1C(=O)c1c(OC(C)=O)cc(C(=O)O)cc1C2=O.NCCO ?
Outgoing: 3.06

---

# PROTOCOL: In vitro skin permeation, Franz diffusion cells
# Format: in vitro ADME, porcine
# CONDITION_LABEL: porcine ear skin, donor saturated solution in isopropyl myristate, receptor PBS pH 7.4, 32 °C; slope of the linear portion of the plots
READOUT_LABEL: Jss, the steady-state flux (µg/cm^2⋅h^–1)
State the answer as a number, implicitly in µg/cm^2⋅h^–1.

Examples from the recorded data:
{"TEST_SMILES": "CC(=O)Oc1cccc2c1C(=O)c1c(OC(C)=O)cc(C(=O)O)cc1C2=O.CCN(CC)CC", "READOUT_LABEL": "Jss, the steady-state flux", "UNIT_STRING": "µg/cm^2⋅h^–1", "NUMBER": 0.11}
{"TEST_SMILES": "CC(=O)Oc1cccc2c1C(=O)c1c(OC(C)=O)cc(C(=O)O)cc1C2=O.CCCCCCN", "READOUT_LABEL": "Jss, the steady-state flux", "UNIT_STRING": "µg/cm^2⋅h^–1", "NUMBER": 0.10}

Incoming: Which Jss, the steady-state flux reading was recorded for the compound CC(=O)Oc1cccc2c1C(=O)c1c(OC(C)=O)cc(C(=O)O)cc1C2=O.CCCCCCCCCCCCN ?
Outgoing: 0.34

Incoming: Which Jss, the steady-state flux reading was recorded for the compound CC(=O)Oc1cccc2c1C(=O)c1c(OC(C)=O)cc(C(=O)O)cc1C2=O.CCCCCCCCCCN ?
Outgoing: 0.20

Incoming: Which Jss, the steady-state flux reading was recorded for the compound CC(=O)Oc1cccc2c1C(=O)c1c(OC(C)=O)cc(C(=O)O)cc1C2=O.CCCCCCCCCCCCCCCCN ?
Outgoing: 0.22

---

# PROTOCOL: In vitro skin permeation, Franz diffusion cells
# Format: in vitro ADME, porcine
# CONDITION_LABEL: porcine ear skin, donor saturated solution in isopropyl myristate, receptor PBS pH 7.4, 32 °C; linear portion of permeation curve extrapolated to the abscissa
# Experimental: According to the description in our previous report (Xu et al., [2011]), the porcine ears immediately obtained from the killed pig were supplied by local slaughterhouse (Xiangtan, China). The hair of porcine ears was carefully cut off with animal hair clippers. […] The samples were determined by an LC-20A HPLC system (SHIMADZU, Kyoto, Japan). […]
READOUT_LABEL: Tlag (h)
State the answer as a number, implicitly in h.

{"COMPOUND": "CC(=O)Oc1cccc2c1C(=O)c1c(OC(C)=O)cc(C(=O)O)cc1C2=O.CCCCCCCCN [DCN-N8]", "Tlag (h)": 2.15}
{"COMPOUND": "CC(=O)Oc1cccc2c1C(=O)c1c(OC(C)=O)cc(C(=O)O)cc1C2=O.CCCCCCCCCCCCN [DCN-N12]", "Tlag (h)": 2.50}
{"COMPOUND": "CC(=O)Oc1cccc2c1C(=O)c1c(OC(C)=O)cc(C(=O)O)cc1C2=O.CCN(CC)CC [DCN-Tea]", "Tlag (h)": 3.39}
{"COMPOUND": "CC(=O)Oc1cccc2c1C(=O)c1c(OC(C)=O)cc(C(=O)O)cc1C2=O.CCCCCCCCCCN [DCN-N10]", "Tlag (h)": 1.38}
{"COMPOUND": "CC(=O)Oc1cccc2c1C(=O)c1c(OC(C)=O)cc(C(=O)O)cc1C2=O [DCN, Diacerein, reference compound]", "Tlag (h)": 2.68}

Incoming: Which Tlag reading was recorded for the compound CC(=O)Oc1cccc2c1C(=O)c1c(OC(C)=O)cc(C(=O)O)cc1C2=O.CCN [DCN-ea] ?
Outgoing: 1.79

Incoming: Which Tlag reading was recorded for the compound CC(=O)Oc1cccc2c1C(=O)c1c(OC(C)=O)cc(C(=O)O)cc1C2=O.CCNCC [DCN-Dea] ?
Outgoing: 4.12

Incoming: Which Tlag reading was recorded for the compound CC(=O)Oc1cccc2c1C(=O)c1c(OC(C)=O)cc(C(=O)O)cc1C2=O.CCCCCCCCCCCCCCCCN [DCN-N16] ?
Outgoing: 1.28

---

# PROTOCOL: In vitro skin permeation, Franz diffusion cells
# Assay type: in vitro ADME, porcine
# CONDITION_LABEL: porcine ear skin, donor saturated solution in isopropyl myristate, receptor PBS pH 7.4, 32 °C, 24 h
READOUT_LABEL: Q24h, the cumulative amount of drug permeated per unit area at 24 h (µg/cm^2)
State the answer as a number, implicitly in µg/cm^2.

Examples from the recorded data:
{"TEST_SMILES": "CC(=O)Oc1cccc2c1C(=O)c1c(OC(C)=O)cc(C(=O)O)cc1C2=O.NCCO", "NUMBER": 3.04}
{"TEST_SMILES": "CC(=O)Oc1cccc2c1C(=O)c1c(OC(C)=O)cc(C(=O)O)cc1C2=O.CCN(CC)CC", "NUMBER": 2.85}
{"TEST_SMILES": "CC(=O)Oc1cccc2c1C(=O)c1c(OC(C)=O)cc(C(=O)O)cc1C2=O.CCCCCCCCCCN", "NUMBER": 6.41}

Incoming: Which Q24h, the cumulative amount of drug permeated per unit area at 24 h reading was recorded for the compound CC(=O)Oc1cccc2c1C(=O)c1c(OC(C)=O)cc(C(=O)O)cc1C2=O.OCCNCCO ?
Outgoing: 4.03
